Molecular target: Muscarinic acetylcholine receptor M1 (Homo sapiens)
Sequence (P11229 whole entry): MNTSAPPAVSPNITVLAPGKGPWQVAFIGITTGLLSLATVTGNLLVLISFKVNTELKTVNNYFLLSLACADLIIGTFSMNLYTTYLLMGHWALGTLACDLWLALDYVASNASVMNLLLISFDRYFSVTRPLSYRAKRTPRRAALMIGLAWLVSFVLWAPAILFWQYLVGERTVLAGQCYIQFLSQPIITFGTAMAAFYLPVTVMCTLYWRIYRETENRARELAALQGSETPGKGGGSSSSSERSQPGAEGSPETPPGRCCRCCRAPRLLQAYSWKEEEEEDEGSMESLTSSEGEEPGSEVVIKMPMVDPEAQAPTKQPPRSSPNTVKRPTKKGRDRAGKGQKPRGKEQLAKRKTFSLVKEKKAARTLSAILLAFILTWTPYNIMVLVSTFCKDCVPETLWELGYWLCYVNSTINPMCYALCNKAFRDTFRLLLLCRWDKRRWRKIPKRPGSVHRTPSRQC
Assay: Cell-Based Functional Assay of Muscarinic Acetylcholine Receptor: For high throughput measurement of agonist-evoked increases in intracellular calcium, CHO-K1 cells stably expressing muscarinic receptors were plated in growth medium lacking G418 and hygromycin at 15,000 cells/20 μL/well in Greiner 384-well black-walled, tissue culture (TC)-treated, clear-bottom plates (VWR). Cells were incubated overnight at 37° C. and 5% CO2. The next day, cells were washed using an ELX 405 (BioTek) with four washes (80 μL) of assay buffer then aspirated to 20 μL. Next, 20 μL of 16 μM Fluo-4/acetoxymethyl ester (Invitrogen, Carlsbad, Calif.) prepared as a 2.3 mM stock in DMSO and mixed in a 1:1 ratio with 10% (w/v) Pluronic F-127 and diluted in assay buffer was added to the wells and the cell plates were incubated for 50 min at 37° C. and 5% CO2. Dye was removed by washing with the ELX 405 (four 80 μL washes of assay buffer) then aspirated to 20 μL. Compound master plates were formatted in an 11 point CRC format (1:3 dilutions) in 100% DMSO with a starting concentration of 10 mM using the BRAVO liquid handler (Agilent). Test compound CRCs were then transferred to daughter plates (240 nL) using the Echo acoustic plate reformatter (Labcyte, Sunnyvale, Calif.) and then diluted into assay buffer (40 μL) to a 2× stock using a Thermo Fisher Combi (Thermo Fisher Scientific, Waltham, Mass.).Calcium flux was measured using the Functional Drug Screening System (FDSS) 6000 (Hamamatsu Corporation, Tokyo, Japan) as an increase in the fluorescent static ratio. Compounds were applied to cells (20 μL, 2×) using the automated system of the FDSS 6000 at 4 s into the 300 s protocol and the data were collected at 1 Hz. At 144 s into the 300s protocol, 10 μL of an EC20 concentration of the muscarinic receptor agonist acetylcholine was added (5×), followed by the addition of 12 μL an EC8O concentration of acetylcholine at the 230 s time point (5×). Agonist activity was analyzed as a concentration-dependent increase in calcium mobilization upon compound addition. Positive allosteric modulator activity was analyzed as a concentration-dependent increase in the EC20 acetylcholine response. Antagonist activity was analyzed as a concentration-dependent decrease in the EC80 acetylcholine response. Concentration-response curves were generated using a four-parameter logistical equation in XLfit curve fitting software (IDBS, Bridgewater, N.J.) for Excel (Microsoft, Redmond, Wash.) or Prism (GraphPad Software, Inc., San Diego, Calif.).
observed-property: pEC50
// pEC50: -log10(molar conc.)

Measured pEC50 of Cn1cc2cc(-c3cc(F)c(CN4Cc5ccc6nccn6c5C4=O)c(F)c3)ccc2n1 : 5.00
